Form field: pIC50 (one value per entry).
Molecular target: PARP4 (Homo sapiens, UniProt Q9UKK3)
Sequence (Q9UKK3 242-573 limits assumed): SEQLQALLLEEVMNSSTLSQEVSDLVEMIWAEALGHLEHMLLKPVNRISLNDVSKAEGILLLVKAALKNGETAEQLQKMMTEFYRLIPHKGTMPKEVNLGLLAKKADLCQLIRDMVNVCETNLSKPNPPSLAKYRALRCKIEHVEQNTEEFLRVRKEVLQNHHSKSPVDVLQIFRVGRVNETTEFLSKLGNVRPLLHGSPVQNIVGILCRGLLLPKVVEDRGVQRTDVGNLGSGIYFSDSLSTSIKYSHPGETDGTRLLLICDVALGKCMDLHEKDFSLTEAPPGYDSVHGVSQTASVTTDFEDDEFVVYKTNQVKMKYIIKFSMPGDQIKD
Assay: activity assay, unused NAD+ converted to a fluorescent compound
Format: biochemical
pIC50: −log10 of the molar value.
Quantity: pIC50

molecule="NC(=O)c1ccc(Oc2cccc(C(N)=O)c2)cc1 [compound 20, 3‐(4‐carbamoylphenoxy)benzamide]" rel== numeric_readout=5.15
molecule="N#Cc1ccc(Oc2ccc(C(N)=O)cc2)cc1 [compound 10, 4‐(4‐cyanophenoxy)benzamide]" rel=< numeric_readout=4.00

---

Form field: IC50 (one value per entry).
Target: PARP3 (Homo sapiens)
Sequence (Q9Y6F1 1-533): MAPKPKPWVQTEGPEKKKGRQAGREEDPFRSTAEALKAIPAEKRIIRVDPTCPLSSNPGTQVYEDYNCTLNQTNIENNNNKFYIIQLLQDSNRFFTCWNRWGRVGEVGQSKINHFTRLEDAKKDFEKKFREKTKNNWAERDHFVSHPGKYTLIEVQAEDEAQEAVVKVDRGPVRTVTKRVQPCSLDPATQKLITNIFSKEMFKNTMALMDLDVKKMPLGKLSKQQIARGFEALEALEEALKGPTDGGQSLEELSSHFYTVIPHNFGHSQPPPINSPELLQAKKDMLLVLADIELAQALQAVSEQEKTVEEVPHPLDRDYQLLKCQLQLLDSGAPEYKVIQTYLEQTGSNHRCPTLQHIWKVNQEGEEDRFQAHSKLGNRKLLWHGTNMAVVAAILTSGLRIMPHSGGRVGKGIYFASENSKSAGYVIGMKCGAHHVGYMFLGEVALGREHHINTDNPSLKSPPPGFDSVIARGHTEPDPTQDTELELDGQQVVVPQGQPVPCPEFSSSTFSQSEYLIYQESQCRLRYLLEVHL
Quantity: IC50

molecule="NC(=O)c1ccc(Oc2cccc(C(N)=O)c2)cc1 [compound 20, 3‐(4‐carbamoylphenoxy)benzamide]" target_or_test_system="PARP3 (Homo sapiens)" quantity=IC50 result="> 100 µM"
molecule="N#Cc1ccc(Oc2ccc(C(N)=O)cc2)cc1 [compound 10, 4‐(4‐cyanophenoxy)benzamide]" target_or_test_system="PARP3 (Homo sapiens)" quantity=IC50 result="> 100 µM"
